# Assay System: c-Myc template DNA (c-myc quadruplex)
# Test Summary: Quadruplex binding / stop assay (Taq polymerase arrest, capillary electrophoresis)
# Measurement Conditions: read-out: S DATA; Table 1D, stop assay data
Result Type: pIC50
pIC50 (log units): -log10 of the concentration in mol/L.

Worked cases, answers included:
COc1ccc2[nH]cc(CCNC(=O)c3cn4c5c(c(N6CCC(N)C6)c(F)cc5c3=O)Oc3cc5ccccc5cc3-4)c2c1 (stereo not shown): 5.76
CN1CCCC1CCNC(=O)c1cn2c3c(c(NC[C@@H]4CCCO4)c(F)cc3c1=O)Oc1cc3ccccc3cc1-2 (stereo partly shown): 5.40
CN1CCCC1CCNC(=O)c1cn2c3c(c(NCCc4c[nH]cn4)c(F)cc3c1=O)Oc1cc3ccccc3cc1-2 (stereo not shown): 6.43
O=C(NCCN1CCCC1)c1cn2c3c(c(N4CC5CCCNC5C4)c(F)cc3c1=O)Oc1cc3ccccc3cc1-2 (stereo not shown): 6.74
N=C(N)NCCCCNC(=O)c1cn2c3c(c(NCCN4CCCC4)c(F)cc3c1=O)Oc1cc3ccccc3cc1-2: 6.00

Query: State, in one line, measured pIC50 of CN1CCCC1CCNC(=O)c1cn2c3c(c(NCC4CCNC4)c(F)cc3c1=O)Oc1cc3ccccc3cc1-2 (stereo not shown)
Response: 6.43

Query: Write down pIC50 measured for item COc1ccc(CCNc2c(F)cc3c(=O)c(C(=O)NCCC4CCCN4C)cn4c3c2Oc2cc3ccccc3cc2-4)cc1OC (stereo not shown)
Response: 5.01

Query: Read off the recorded pIC50 for CCN(CC)CCCC(C)NC(=O)c1cn2c3c(c(N4CCC(c5cnccn5)C4)ccc3c1=O)Oc1cc3ccccc3cc1-2 (stereo not shown)
Response: 6.00

Query: Entry CN1CCCC1CCNC(=O)c1cn2c3c(c(SCCc4ccccn4)c(F)cc3c1=O)Oc1cc3ccccc3cc1-2 (stereo not shown) needs its pIC50 filled in; supply it.
Response: 5.26

Query: Recall and state the measured pIC50 for CCN(CC)CCCC(C)Nc1c(F)cc2c(=O)c(C(=O)NCCC3CCCN3C)cn3c2c1Oc1cc2ccccc2cc1-3 (stereo not shown) .
Response: 6.12

Query: State its pIC50: COc1ccc(CCNc2c(F)cc3c(=O)c(C(=O)NCCN4CCCC4)cn4c3c2Oc2cc3ccccc3cc2-4)cc1OC
Response: 5.74

Query: Report pIC50 for CN1CCN(CCCNc2ccc3c(=O)c(C(=O)NCCC4CCCN4C)cn4c3c2Oc2cc3ccccc3cc2-4)CC1 (stereo not shown)
Response: 6.12

Query: Given the compound CC1CCN(CCCNc2c(F)cc3c(=O)c(C(=O)NCCC4CCCN4C)cn4c3c2Oc2cc3ccccc3cc2-4)CC1 (stereo not shown) , write its reported pIC50.
Response: 6.12

Query: Determine from records and report pIC50 for CCCCN1CCC(CNC(=O)c2cn3c4c(c(N5CCC(N)C5)c(F)cc4c2=O)Oc2cc4ccccc4cc2-3)CC1 (stereo not shown)
Response: 5.76

Query: Dear colleague, please send me the reported pIC50 for CN1CCCC1CCNC(=O)c1cn2c3c(c(NC4CC(C)(C)N(O)C(C)(C)C4)c(F)cc3c1=O)Oc1cc3ccccc3cc1-2 (stereo not shown) when you can.
Response: 5.76

Query: Give the value of pIC50 reported for the following: O=C(NCCN1CCOCC1)c1cn2c3c(c(NCCN4CCCC4)ccc3c1=O)Oc1cc3ccccc3cc1-2
Response: 5.76

Query: Answer with the recorded pIC50 for the compound listed here: O=C(NCCN1CCCC1)c1cn2c3c(c(N4CC5CCCNC5C4)ccc3c1=O)Oc1cc3ccccc3cc1-2 (stereo not shown)
Response: 6.43

Query: Indicate the recorded pIC50 value for this compound: C[C@@H](O)CNc1c(F)cc2c(=O)c(C(=O)NCCC3CCCN3C)cn3c2c1Oc1cc2ccccc2cc1-3 (stereo partly shown)
Response: 6.12
